Origin of measurements: PubChem BioAssay (Tox21)

biological target: Nuclear receptor ROR-gamma (Homo sapiens) (UniProt P51449); assay: qHTS assay to identify small molecule antagonists of the retinoid-related orphan receptor gamma (ROR-gamma) signaling pathway (AID 1159521; note: nearly all actives have a fitted effect of over 50% in size); conditions: Tet-on RORgamma CHO cells, RORE-luciferase, 16 h; series mostly up to 92.4 µM
Results filed as inconclusive are left out. The source made the active and inactive calls. Calls come from the whole dose curve; as a rule, active = well fitted inhibition curve with a large enough effect in the repeat runs; inconclusive = weak or mixed curves, or effect the other way; inactive = no such curve, though single readings can be large or run the other way.
Outcome codes: active, inactive

compound: CC(C)[C@@H](Nc1ccc(C(F)(F)F)cc1Cl)C(=O)OC(C#N)c1cccc(Oc2ccccc2)c1 (some centres undefined)
targetOfAssay: Nuclear receptor ROR-gamma (Homo sapiens) (UniProt P51449)
label: inactive
//
compound: BrCCCBr
targetOfAssay: Nuclear receptor ROR-gamma (Homo sapiens) (UniProt P51449)
label: inactive
//
compound: Nc1ccccc1-c1ccccc1
targetOfAssay: Nuclear receptor ROR-gamma (Homo sapiens) (UniProt P51449)
label: inactive
//
compound: O=[N+]([O-])c1ccccc1-c1ccccc1
targetOfAssay: Nuclear receptor ROR-gamma (Homo sapiens) (UniProt P51449)
label: inactive
//
compound: CCC(C)Br (centres undefined)
targetOfAssay: Nuclear receptor ROR-gamma (Homo sapiens) (UniProt P51449)
label: inactive
//
compound: CCOC(=O)CCN(SN(C)C(=O)Oc1cccc2c1OC(C)(C)C2)C(C)C
targetOfAssay: Nuclear receptor ROR-gamma (Homo sapiens) (UniProt P51449)
label: active
//
compound: O=[N+]([O-])c1ccc(CCl)cc1
targetOfAssay: Nuclear receptor ROR-gamma (Homo sapiens) (UniProt P51449)
label: inactive
//
compound: CCCCC(CC)COC(=O)OOC(C)(C)C (centres undefined)
targetOfAssay: Nuclear receptor ROR-gamma (Homo sapiens) (UniProt P51449)
label: inactive
//
compound: CCCCCCCc1ccc(O)cc1
targetOfAssay: Nuclear receptor ROR-gamma (Homo sapiens) (UniProt P51449)
label: inactive
//
compound: COc1ccc2c3c1O[C@H]1[C@H](O)CC[C@H]4[C@@H](C2)N(C)CC[C@@]341
targetOfAssay: Nuclear receptor ROR-gamma (Homo sapiens) (UniProt P51449)
label: inactive
//
compound: C=CC(=O)[O][Sn]([CH2]CCC)([CH2]CCC)[CH2]CCC
targetOfAssay: Nuclear receptor ROR-gamma (Homo sapiens) (UniProt P51449)
label: active
//
compound: CN
targetOfAssay: Nuclear receptor ROR-gamma (Homo sapiens) (UniProt P51449)
label: inactive
//
compound: C1=CCC=C1
targetOfAssay: Nuclear receptor ROR-gamma (Homo sapiens) (UniProt P51449)
label: inactive
//
compound: Clc1ccc(C2(Cn3cncn3)OCCO2)c(Cl)c1
targetOfAssay: Nuclear receptor ROR-gamma (Homo sapiens) (UniProt P51449)
label: inactive
//
compound: C[C@H]1[C@H](c2ccc(Cl)cc2)SC(=O)N1C(=O)NC1CCCCC1
targetOfAssay: Nuclear receptor ROR-gamma (Homo sapiens) (UniProt P51449)
label: active
//
compound: CNC(=O)O/N=C(\C)C(C)S(C)(=O)=O (centres undefined)
targetOfAssay: Nuclear receptor ROR-gamma (Homo sapiens) (UniProt P51449)
label: inactive
//
compound: CC1(C)[C@H](/C=C2\CCSC2=O)[C@@H]1C(=O)OCc1coc(Cc2ccccc2)c1
targetOfAssay: Nuclear receptor ROR-gamma (Homo sapiens) (UniProt P51449)
label: active
//
compound: CC(=O)[O][Sn]([c]1ccccc1)([c]1ccccc1)[c]1ccccc1
targetOfAssay: Nuclear receptor ROR-gamma (Homo sapiens) (UniProt P51449)
label: active
//
compound: CCN(CC)Cc1nccn1-c1ccc([N+](=O)[O-])cc1C(=O)c1ccccc1Cl
targetOfAssay: Nuclear receptor ROR-gamma (Homo sapiens) (UniProt P51449)
label: inactive
